# SYSTEM: RELB subunit;p52 subunit (Homo sapiens;Homo sapiens, UniProt Q01201;Q00653 120-401;4-332)
# Sequence 1: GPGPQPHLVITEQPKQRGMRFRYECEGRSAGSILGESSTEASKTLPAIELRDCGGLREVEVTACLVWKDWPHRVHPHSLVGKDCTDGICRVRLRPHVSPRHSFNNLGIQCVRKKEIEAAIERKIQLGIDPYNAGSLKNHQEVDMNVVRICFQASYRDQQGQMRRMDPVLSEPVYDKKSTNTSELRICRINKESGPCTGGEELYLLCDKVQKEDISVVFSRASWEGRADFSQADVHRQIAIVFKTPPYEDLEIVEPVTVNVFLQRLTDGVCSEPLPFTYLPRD
# Sequence 2: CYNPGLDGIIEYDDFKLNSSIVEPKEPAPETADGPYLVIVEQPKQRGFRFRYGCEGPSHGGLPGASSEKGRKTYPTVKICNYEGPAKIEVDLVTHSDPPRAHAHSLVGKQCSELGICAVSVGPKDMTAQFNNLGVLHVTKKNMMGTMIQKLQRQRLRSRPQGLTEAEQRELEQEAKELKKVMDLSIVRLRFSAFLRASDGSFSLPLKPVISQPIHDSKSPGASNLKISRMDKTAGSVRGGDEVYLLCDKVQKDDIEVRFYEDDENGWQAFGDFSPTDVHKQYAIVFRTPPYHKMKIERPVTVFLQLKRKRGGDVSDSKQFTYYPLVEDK
# METHOD SUMMARY: protein binding microarray; high values mean tight binding
# REPORTED CONDITIONS: dsDNA, one strand shown
READOUT LABEL: binding signal (z-score)

    record_sequence   readout_label  measured_number
 0      AAGGACGCCCT  binding signal           -0.803
 1      AAGAGCATCCT  binding signal           -0.978
 2      CGATGACCCCT  binding signal          -0.0567
 3      CGGGTATCCCC  binding signal             1.59
 4      CAATTATCCCC  binding signal             1.33
 5      AGGTGTGCCCT  binding signal           -0.903
 6      GGAGTGGCCCT  binding signal           -0.334
 7      AAGTTTCTCCC  binding signal            0.357
 8      AAAAGCGTCCC  binding signal            0.821
 9      CGAGGTGCCCT  binding signal            -0.87
10      GGGTTCCTCCT  binding signal           -0.638
11      AGATTACTCCT  binding signal           -0.843
12      CGGGAGCTCCC  binding signal           -0.106
13      GGAGAAGTCCT  binding signal           -0.864
14      GGATATCTCCC  binding signal           -0.143
15      GGGGATTCCCT  binding signal             2.75
16      AAAAAGCTCCT  binding signal            -1.06
17      AAGAATTTCCT  binding signal           -0.375
18      AGAATTTCCCC  binding signal             2.28
19      AAGGGGCTCCT  binding signal            0.791
20      AAGGTCCCCCC  binding signal             1.74
21      AAAAACATCCT  binding signal           -0.741
22      GAGTTGGCCCT  binding signal           -0.397
23      GGAATCGTCCC  binding signal            0.267
24      CAATGGGCCCC  binding signal           -0.185
25      AGAAACTTCCC  binding signal            0.541
26      GAGTATTTCCC  binding signal            0.505
27      AAGTGCTCCCT  binding signal           -0.434
28      GGGGTGTTCCT  binding signal            0.472
29      CAGGTGCTCCT  binding signal           -0.443
30      GAAGGTGCCCT  binding signal           -0.597
31      AAAATGATCCC  binding signal           -0.704
32      CAGTTCTCCCT  binding signal             1.11
33      AGAAGATTCCT  binding signal           -0.843
34      AGATTTATCCC  binding signal           -0.135
35      CAAGGGGTCCT  binding signal           -0.354
36      AAAGGATCCCT  binding signal           -0.424
37      AAAGAATTCCC  binding signal            0.975
38      GAGAGTTCCCC  binding signal             1.62
39      CAGTTACTCCT  binding signal           -0.763
40      GAGGTTATCCT  binding signal           -0.759
41      AGGTAGGTCCC  binding signal            0.178
42      GGGGGGCCCCT  binding signal             1.45
43      GGGAACCCCCC  binding signal             2.68
44      AAATTTTTCCC  binding signal             1.38
45      CGATTAACCCT  binding signal           -0.624
46      GGAAAGTTCCC  binding signal            0.686
47      AGGATTTCCCT  binding signal             1.91
48      CAGGGGTTCCT  binding signal            0.388
49      CAAATAATCCT  binding signal           -0.846
50      GGAGTCGTCCT  binding signal           -0.714
51      GAGAATGTCCT  binding signal           -0.926
52      CAATGGTTCCT  binding signal            -0.56
53      GAATGAGCCCT  binding signal           -0.969
54      GGGGACACCCC  binding signal              2.1
55      AAGGTAGCCCC  binding signal            0.184
56      CGGGACTCCCC  binding signal             1.87
57      GAGAATTCCCT  binding signal             1.74
58      AGGAGGTCCCC  binding signal            0.644
59      AAGGTCACCCT  binding signal           -0.697
60      CGAATATTCCC  binding signal            0.536
61      GAATGCCTCCT  binding signal            -1.25

# credit: paper PMC3218832
